assay: recombinant UMI read abundance after kanamycin selection (control-corrected) (log10(CPM+1)); higher = more efficient recombination; extreme values may be limits of the assay; sequences stand for … in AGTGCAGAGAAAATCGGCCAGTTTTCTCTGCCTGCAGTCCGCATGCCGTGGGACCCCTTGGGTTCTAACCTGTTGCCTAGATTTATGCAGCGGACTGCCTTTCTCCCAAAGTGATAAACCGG…AGGTTGGTTTCACT; site = the 11-nt donor;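 also: IS621 bridge recombinase in Escherichia coli cells against a fixed T5 target plasmid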
Please mark met if the recorded recombinant UMI read abundance (log10) is equal to or greater than 0.4, and not met if it falls below.

Below, 5 sequences whose answers are already recorded.
ACCTATACATGGACCGGTTTTCCCGGTAATCCGTATTTGGG (site ACCTAGACTCC)
not met
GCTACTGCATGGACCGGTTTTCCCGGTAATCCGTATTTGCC (site GCTACTGCTAG)
not met
GCTAAAGCATGGACCGGTTTTCCCGGTAATCCGTATTTGAT (site TCTAAAGCTAT)
not met
CACTCCTCATGGACCGGTTTTCCCGGTAATCCGTATTTGGC (site CACTCCTCTGT)
met
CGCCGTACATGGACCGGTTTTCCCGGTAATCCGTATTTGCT (site CGCGGTACTAG)
not met

## Task Answer whether recombinant UMI read abundance (log10) of GTAGTCTCATGGACCGGTTTTCCCGGTAATCCGTATTTGCG (site GTAGTCCCTCG) is greater than or equal to 0.4.
## Result met

## Task Answer whether recombinant UMI read abundance (log10) of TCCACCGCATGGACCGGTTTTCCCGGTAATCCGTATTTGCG (site TCCATCGCTCG) is greater than or equal to 0.4.
## Result not met

## Task Answer whether recombinant UMI read abundance (log10) of GACAACCCATGGACCGGTTTTCCCGGTAATCCGTATTTGGT (site GACAAACCTAC) is greater than or equal to 0.4.
## Result not met
